The measurements presented in this section are drawn from BindingDB's records for doi:10.1016/j.bioorg.2016.05.004.

Target: UniProtKB Q9N1N9
Sequence (Q9N1N9 whole entry): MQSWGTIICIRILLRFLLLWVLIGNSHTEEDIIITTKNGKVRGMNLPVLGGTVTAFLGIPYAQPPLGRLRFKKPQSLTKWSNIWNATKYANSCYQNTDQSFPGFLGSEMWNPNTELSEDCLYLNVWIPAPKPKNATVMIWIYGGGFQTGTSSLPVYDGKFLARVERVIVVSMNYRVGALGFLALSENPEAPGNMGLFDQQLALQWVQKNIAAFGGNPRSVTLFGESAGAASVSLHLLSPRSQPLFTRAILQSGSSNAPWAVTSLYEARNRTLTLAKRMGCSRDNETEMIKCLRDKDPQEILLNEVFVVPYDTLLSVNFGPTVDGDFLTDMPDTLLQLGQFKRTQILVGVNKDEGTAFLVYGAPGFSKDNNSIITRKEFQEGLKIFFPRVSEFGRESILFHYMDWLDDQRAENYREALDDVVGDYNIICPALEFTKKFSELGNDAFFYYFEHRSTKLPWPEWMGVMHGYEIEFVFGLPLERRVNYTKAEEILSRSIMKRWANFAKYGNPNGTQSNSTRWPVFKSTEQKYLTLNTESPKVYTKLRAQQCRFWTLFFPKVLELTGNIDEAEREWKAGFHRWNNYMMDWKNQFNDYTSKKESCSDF
Reported pIC50 values for a set of molecules
Please note pIC50 is a logarithmic value: minus log10 of concentration in mol/L. Answer with that number alone.

input: Bench note: what pIC50 did Cc1ccc2c(c1)C(=O)NCCC2O (stereo unspecified) show?
output: 3.97

input: Bench note: what pIC50 did O=C1NCC(O)c2ccccc21 (stereo unspecified) show?
output: 3.09

input: Bench note: what pIC50 did O=C1NCC(O)c2cc(Cl)ccc21 (stereo unspecified) show?
output: 3.65

input: Bench note: what pIC50 did COC1CNC(=O)c2ccccc21 (stereo unspecified) show?
output: 3.81

input: Bench note: what pIC50 did Cc1ccc2c(c1)C(=O)NCC2O (stereo unspecified) show?
output: 3.45

input: Bench note: what pIC50 did `COc1ccc2c3c1O[C@H]1C[C@@H](O)C=C[C@@]31CCN(C)C2` show?
output: 4.21
